Test system: Bacillus subtilis
Experiment: Antimicrobial activity against Bacillus subtilis BR151 after 24 hrs by broth micro-dilution method
Type: functional
Conditions: BR151, 24 h
Task for the reader: assign each of the following compounds its reported MIC.
Give just the number in µg/mL; leave the unit off.

Ask: Query: MIC; subject: `CCCCCCCCCCCCCCCC(=O)NCCN(C(=O)CCCN)[C@@H](Cc1ccccc1)C(=O)NCCN(C(=O)CCCN)[C@@H](Cc1ccccc1)C(=O)NCCN(C(=O)CCCN)[C@@H](Cc1ccccc1)C(=O)NCCN(C(=O)CCCN)[C@@H](Cc1ccccc1)C(=O)NCCN(C(=O)CCCN)[C@@H](Cc1ccccc1)C(N)=O`
Reply: 4

Ask: Repeat with `CCCCCCCCCCCCCCCC(=O)NCCN(C(=O)CCc1ccccc1)[C@@H](CCCCN)C(=O)NCCN(C(=O)CCc1ccccc1)[C@@H](CCCCN)C(=O)NCCN(C(=O)CCc1ccccc1)[C@@H](CCCCN)C(N)=O`
Reply: 2

Ask: // repeat for `CCCCCCCCCCCCCCCC(=O)NCCN(C(C)=O)[C@@H](C)C(=O)NCCN(C(C)=O)[C@@H](C)C(=O)NCCN(C(=O)CCCN)[C@@H](CCCCN)C(=O)NCCN(C(=O)CCCN)[C@@H](CCCCN)C(=O)NCCN(C(=O)CCCN)[C@@H](CCCCN)C(N)=O` and report
Reply: 4

Ask: Next compound up: `CCCCCCCCCCCCCCCC(=O)NCCN(C(=O)CCC(C)C)[C@@H](CCCCN)C(=O)NCCN(C(=O)CCC(C)C)[C@@H](CCCCN)C(N)=O`
Reply: 2

Ask: Moving on to `CCCCCCCCCCCCCCCC(=O)NCCN(C(=O)CCc1ccccc1)[C@@H](CCCCN)C(=O)NCCN(C(=O)CCc1ccccc1)[C@@H](CCCCN)C(N)=O`
Reply: 4

Ask: // same read-out, input: `CCCCCCCCCCCCCCCC(=O)NCCN(C(C)=O)[C@@H](C)C(=O)NCCN(C(C)=O)[C@@H](C)C(=O)NCCN(C(=O)CCCN)[C@@H](Cc1ccccc1)C(=O)NCCN(C(=O)CCCN)[C@@H](Cc1ccccc1)C(=O)NCCN(C(=O)CCCN)[C@@H](Cc1ccccc1)C(N)=O`
Reply: 2

Ask: Then what about the compound `CCCCCCCCCCCCCCCC(=O)NCCN(C(=O)CCCN)[C@@H](Cc1ccccc1)C(=O)NCCN(C(=O)CCCN)[C@@H](Cc1ccccc1)C(=O)NCCN(C(=O)CCCN)[C@@H](Cc1ccccc1)C(N)=O` ?
Reply: 2
